GI50 by entry:
test system: UACC-257; assay: NCI tumour cell line growth inhibition, 48 h
Activity calls are given as the source filed them. Cut-off read from the data, not from the text of the source: active = GI50 up to about 1.1 µM and inactive = higher.

compound	test-system	GI50
Cc1cc(NC[C@H](O)[C@H](O)[C@H](O)CO)c(Sc2cc(=O)[nH]c(=O)[nH]2)cc1C	UACC-257	> 62.5 µM (inactive)
[C-]#[N+]C(=C\c1ccc(O)cc1)/C(=C/c1ccc(O)cc1)[N+]#[C-] [XANTOCILLIN]	UACC-257	2.53 µM (inactive)
CC1(CCc2ccccc2)CC1(Br)Br (stereo not given)	UACC-257	25.8 µM (inactive)
C#CCOCn1cnc2c(Cl)ncnc21	UACC-257	> 100 µM (inactive)
COc1ccc(/C=C2\N=C3NC(=O)C(N4CCOCC4)=C(N)N3C2=O)cc1	UACC-257	> 100 µM (inactive)
CC1(C2COC(=O)C2)SCCCS1 (stereo not given)	UACC-257	> 100 µM (inactive)
CC(C)CCc1c(Cl)nc(Cl)nc1Cl	UACC-257	16.7 µM (inactive)
Cc1ncc([N+](=O)[O-])n1CCNC(=O)CCn1ccnc1[N+](=O)[O-]	UACC-257	> 100 µM (inactive)
Cc1cccc2c(N)c3cccc(C(=O)NCC[N+](C)(C)Cc4ccc([N+](=O)[O-])n4C)c3nc12	UACC-257	53.5 µM (inactive)
NC(CCOCCP(=O)(O)CCC1C=CC=CC1)C(=O)O (stereo not given)	UACC-257	> 100 µM (inactive)
